System: DU-145
Assay: Cytotoxicity against human DU145 cells after 144 hrs by SRB assay
Format: cell-based
Details: du-145, 144 h
readout_kind: Activity

compound=N#Cc1ccc(NC(=O)[C@](O)(Cc2cc(F)cc(F)c2)CS(=O)(=O)c2ccc(F)cc2)cc1C(F)(F)F measured_value=Toxic
compound=N#Cc1ccc(NC(=O)[C@](O)(Cc2ccc3ccccc3c2)CS(=O)(=O)c2ccc(F)cc2)cc1C(F)(F)F measured_value=Toxic
compound=N#Cc1ccc(C[C@](O)(CS(=O)(=O)c2ccc(F)cc2)C(=O)Nc2ccc(C#N)c(C(F)(F)F)c2)cc1 measured_value=Non-toxic
compound="C[C@](O)(CS(=O)(=O)c1ccc(F)cc1)C(=O)Nc1ccc(C#N)c(C(F)(F)F)c1 [(R)-BICALUTAMIDE]" measured_value=Non-toxic
